Biological target: ecto-domain protein of CD147 (Homo sapiens (assumed), isoform 2, UniProt P35613-2, biotin (Sulfo-NHS-LC-Biotin) in the BLI only)
Sequence (P35613 other isoform, or with tags, fused parts or gaps): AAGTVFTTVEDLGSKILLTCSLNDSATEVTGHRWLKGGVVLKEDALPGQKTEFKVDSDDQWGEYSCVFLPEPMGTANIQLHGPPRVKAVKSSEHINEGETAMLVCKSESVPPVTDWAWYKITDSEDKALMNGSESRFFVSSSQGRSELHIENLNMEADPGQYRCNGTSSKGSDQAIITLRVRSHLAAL
Parameter Measured: binding result

>  <Binder>
V-3 (VHH) VHH: QVQLQESGGGSVQAGGTLRLSCRVSGYTFSRHCMGWFRQGPGKEREVVATIYTFNGRTSYADSVKGRFTISQDNAQNSLYLQMDSLKPEDTATYYCAAARIGWTSVSGSCPRMGDENKYWGQGTQVTVSS

>  <Parameter Measured>
binding result

>  <Val>
binds

$$$$
>  <Binder>
V-29 (VHH) VHH: QVQLQESGGGLVQPGGSLRLSCAAFGFIFSNYDMSWVRQAPGKGFEWVSSISRYGRTSNADAVKGRFTISRDNAKNTLYLQMNSLKTDDTAVYYCATGNFCSGGRCYINRGQGTQVTVSS

>  <Parameter Measured>
binding result

>  <Val>
binds

$$$$
